target: UniProtKB P16083; assay: Inhibition of human recombinant NQO2 assessed as reduction of DCPIP by spectrophotometry
pIC50: −log10 of the molar value.
Criterion: pIC50 meeting or surpassing 7. Met: 1. Not met: 0.

Worked examples, 3 compounds total:
structure_smiles_string=COc1ccc2c(c1)c(=O)c1c(NCC[N+](C)(C)[O-])ccc3ncn2c31 study_target="UniProtKB P16083" category_label=1
structure_smiles_string=COc1ccc2c(c1)c(=O)c1c(NCCN(C)C)ccc3ncn2c31 study_target="UniProtKB P16083" category_label=1
structure_smiles_string=C[N+](C)([O-])CCNc1ccc2ncn3c4ccc(F)cc4c(=O)c1c23 study_target="UniProtKB P16083" category_label=0

For the next question, use this compound.
Could you tell me if the measured pIC50 of COc1ccc2c(c1)c(=O)c1c(NCCN(C)C)ccc3nc(C)n2c31 reaches 7 or more?
1

###

target: Ribosyldihydronicotinamide dehydrogenase [quinone] (Homo sapiens); assay: Inhibition of human recombinant NQO2 assessed as reduction of DCPIP by spectrophotometry in the presence of 2 uM BSA
Parameter: IC50. Scope: all listed entries.
Unit µM implied. Number only.

structure_smiles_string=COc1ccc2c(c1)c(=O)c1c(NCCN(C)C)ccc3ncn2c31 experimental_endpoint=IC50 result_unit=µM obs_value=3.2

Query: IC50; subject: COc1ccc2c(c1)c(=O)c1c(NCC[N+](C)(C)[O-])ccc3ncn2c31
0.098

###

biological target: Ribosyldihydronicotinamide dehydrogenase [quinone] (Homo sapiens, UniProt P16083); test: Inhibition of human recombinant NQO2 assessed as reduction of DCPIP by spectrophotometry
Please use met for IC50 under 70 nM and not met for everything else, ties included.

structure_smiles_string=Cc1nc2ccc(NCC[N+](C)(C)[O-])c3c(=O)c4cc(Br)ccc4n1c23 category_label=met
structure_smiles_string=CCN(CC)CCNc1ccc2nc(C)n3c4ccc(O)cc4c(=O)c1c23 category_label=met
structure_smiles_string=C[N+](C)([O-])CCNc1ccc2ncn3c4ccc(O)cc4c(=O)c1c23 category_label=met
structure_smiles_string=Cc1nc2ccc(NCC[N+](C)(C)[O-])c3c(=O)c4cc(F)ccc4n1c23 category_label="not met"
structure_smiles_string=Cc1nc2ccc(NCCN(C)C)c3c(=O)c4cc(F)ccc4n1c23 category_label="not met"

Report whether reported IC50 is lower than 70 nM (strictly) for Cc1nc2ccc(NCCN(C)C)c3c(=O)c4ccccc4n1c23
not met

Dear colleague, could you confirm whether IC50 of Cc1nc2ccc(NCC[N+](C)(C)[O-])c3c(=O)c4ccccc4n1c23 falls below 70 nM? Thanks.
met

Record CN(C)CCNc1ccc2ncn3c4ccc(O)cc4c(=O)c1c23 : is its IC50 strictly below 70 nM?
not met

API: query returns whether the compound falls strictly under 70 nM in IC50. Query: Cc1nc2ccc(NCCN(C)C)c3c(=O)c4cc(Br)ccc4n1c23
not met

###

Target: Ribosyldihydronicotinamide dehydrogenase [quinone] (Homo sapiens) (UniProt P16083)
Sequence (whole entry): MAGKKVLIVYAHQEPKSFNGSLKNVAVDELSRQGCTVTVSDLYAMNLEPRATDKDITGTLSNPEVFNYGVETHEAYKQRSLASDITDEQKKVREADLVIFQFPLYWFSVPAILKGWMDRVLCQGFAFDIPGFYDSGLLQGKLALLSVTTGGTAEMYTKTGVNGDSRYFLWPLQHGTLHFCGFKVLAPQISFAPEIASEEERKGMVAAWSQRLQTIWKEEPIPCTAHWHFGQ
Test: Ratio of IC50 for human recombinant NQO2 in the presence of BSA to IC50 for human recombinant NQO2 in the absence of BSA
Measured Ratio IC50, listed per entry for reference.
// no unit, no text: just the number

Some solved entries appear below for comparison.
structure_smiles_string=COc1ccc2c(c1)c(=O)c1c(NCC[N+](C)(C)[O-])ccc3ncn2c31 experimental_endpoint="Ratio IC50" obs_value=7
structure_smiles_string=C[N+](C)([O-])CCNc1ccc2ncn3c4ccccc4c(=O)c1c23 experimental_endpoint="Ratio IC50" obs_value=6.5
structure_smiles_string=COc1ccc2c(c1)c(=O)c1c(NCCN(C)C)ccc3ncn2c31 experimental_endpoint="Ratio IC50" obs_value=54

Alright, here's another compound for you.
I'd like to know its Ratio IC50. The compound in question is CN(C)CCNc1ccc2ncn3c4ccccc4c(=O)c1c23
38

###

target: UniProt P16083; assay: Inhibition of human recombinant NQO2 assessed as reduction of DCPIP by spectrophotometry
experimental.endpoint: pIC50
Expect pIC50 as a plain number equal to -log10 of the molar concentration.

Some solved cases for reference:
structure_smiles_string=Cc1nc2ccc(NCCN(C)C)c3c(=O)c4cc(O)ccc4n1c23 experimental_endpoint=pIC50 obs_value=7.05
structure_smiles_string=CN(C)CCNc1ccc2ncn3c4ccccc4c(=O)c1c23 experimental_endpoint=pIC50 obs_value=6.94
structure_smiles_string=CN(C)CCNc1ccc2ncn3c4ccc(F)cc4c(=O)c1c23 experimental_endpoint=pIC50 obs_value=7.01
structure_smiles_string=COc1ccc2c(c1)c(=O)c1c(NCC[N+](C)(C)[O-])ccc3nc(C)n2c31 experimental_endpoint=pIC50 obs_value=7.14
structure_smiles_string=CCN(CC)CCNc1ccc2ncn3c4ccc(O)cc4c(=O)c1c23 experimental_endpoint=pIC50 obs_value=6.90

Kindly consider the entry below.
Any idea what pIC50 was measured for C[N+](C)([O-])CCNc1ccc2ncn3c4ccccc4c(=O)c1c23 ?
7.02
